# systemTested: TRPV1 (Mus musculus)
# Sequence (Q704Y3 whole entry): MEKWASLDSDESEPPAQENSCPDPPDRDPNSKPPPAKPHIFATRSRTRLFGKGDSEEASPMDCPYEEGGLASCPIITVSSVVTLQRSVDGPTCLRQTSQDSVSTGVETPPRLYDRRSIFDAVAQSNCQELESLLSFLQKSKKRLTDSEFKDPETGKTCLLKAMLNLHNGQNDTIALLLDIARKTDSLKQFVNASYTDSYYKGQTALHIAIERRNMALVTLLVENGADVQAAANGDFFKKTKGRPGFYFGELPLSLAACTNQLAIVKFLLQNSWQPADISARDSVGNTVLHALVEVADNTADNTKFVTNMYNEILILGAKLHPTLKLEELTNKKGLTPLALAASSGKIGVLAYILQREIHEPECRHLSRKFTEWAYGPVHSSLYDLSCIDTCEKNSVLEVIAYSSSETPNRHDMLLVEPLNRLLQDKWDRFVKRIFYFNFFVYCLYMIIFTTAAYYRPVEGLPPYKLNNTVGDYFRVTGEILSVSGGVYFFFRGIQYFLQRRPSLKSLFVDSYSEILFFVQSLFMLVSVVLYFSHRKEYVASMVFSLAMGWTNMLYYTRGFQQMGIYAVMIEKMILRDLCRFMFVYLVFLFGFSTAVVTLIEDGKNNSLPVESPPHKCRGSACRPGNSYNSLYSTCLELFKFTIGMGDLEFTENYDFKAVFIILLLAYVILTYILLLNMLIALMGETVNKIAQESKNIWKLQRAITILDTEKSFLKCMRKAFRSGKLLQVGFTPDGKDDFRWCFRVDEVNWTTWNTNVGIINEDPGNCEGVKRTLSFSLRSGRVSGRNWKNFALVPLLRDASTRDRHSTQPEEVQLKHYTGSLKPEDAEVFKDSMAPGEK
assayEndpoint: IC50 (nM)
Unit nM implied. Number only.

Q) API: value(readout=IC50, system=TRPV1 (Mus musculus)) for record CCCCCCCC/C=C\CCCCCCCC(=O)N[C@@H](CCC(N)=O)C(=O)O
A) 1300

Sourced from paper PMC6055169
